Origin of the recorded values: the supplement of paper PMC10037445

Kindly state NF-kB SEAP reporter activity for each of the entries shown.
Test system: RAW-Dual
ASSAY_PROTOCOL: NF-kB SEAP reporter activity, fold change vs agonist alone; higher = enhanced NF-kB activity
STATED_CONDITIONS: library stock concentration (final ~1000-fold dilution): 10 mM; cytotoxicity flag (confluency mask): not cytotoxic; agonist: MPLA (TLR4) […]
The full ranking holds about 2,900 compounds; the median of “NF-kB SEAP reporter activity, fold change vs agonist alone” is about 0.99, and the highest 2% start at about 2.6. The sample as a whole holds a higher share of the highest values than the screen did.
Give bare numbers.

In the examples that follow, each entry is paired with its recorded NF-kB SEAP reporter activity.
# COMPOUND, NF-kB SEAP reporter activity
measured = [
    ("COc1cc(-c2cc(-c3cccc(O)c3)cnc2N)cc(OC)c1OC", 1.77),
    ("CC1COCCN1c1cc(-c2ccnn2C)c2ccnc(-c3ccn[nH]3)c2n1.Cl (centres undefined)", 2.05),
    ("O=C(Cc1ccc(-c2ccc(OCCN3CCOCC3)cc2)cn1)NCc1ccccc1", 2.26),
    ("CC(/C=C/C=C(\\C)C(=O)OC1OC(COC2OC(CO)C(O)C(O)C2O)C(O)C(O)C1O)=C\\C=C\\C=C(C)\\C=C\\C=C(/C)C(=O)OC1OC(COC2OC(CO)C(O)C(O)C2O)C(O)C(O)C1O (centres undefined)", 1.03),
    ("O=C(NC1=CC(=O)[C@H]2O[C@H]2[C@H]1O)c1ccccc1O", 1.08),
    ("NNC(=O)c1ccncc1", 1.05),
    ("COc1ccc(S(=O)(=O)N(CCO)c2ccccc2CN(C)CC=Cc2ccc(Cl)cc2)cc1", 1.07),
    ("O=C(NCCN1CCOCC1)c1ccc(Cl)cc1", 1.82),
]

Below: the item to evaluate.
Quick one: NF-kB SEAP reporter activity for COC1C(=O)C2(C)C(OC)CC3OCC3(OC(C)=O)C2C(OC(=O)c2ccccc2)C2(O)CC(OC(=O)C(O)C(NC(=O)OC(C)(C)C)c3ccccc3)C(C)=C1C2(C)C (centres undefined) ?
1.25
